Biological target: T1, human GIP receptor (human, UniProt P48546 22-466)
T1 sequence (looked up): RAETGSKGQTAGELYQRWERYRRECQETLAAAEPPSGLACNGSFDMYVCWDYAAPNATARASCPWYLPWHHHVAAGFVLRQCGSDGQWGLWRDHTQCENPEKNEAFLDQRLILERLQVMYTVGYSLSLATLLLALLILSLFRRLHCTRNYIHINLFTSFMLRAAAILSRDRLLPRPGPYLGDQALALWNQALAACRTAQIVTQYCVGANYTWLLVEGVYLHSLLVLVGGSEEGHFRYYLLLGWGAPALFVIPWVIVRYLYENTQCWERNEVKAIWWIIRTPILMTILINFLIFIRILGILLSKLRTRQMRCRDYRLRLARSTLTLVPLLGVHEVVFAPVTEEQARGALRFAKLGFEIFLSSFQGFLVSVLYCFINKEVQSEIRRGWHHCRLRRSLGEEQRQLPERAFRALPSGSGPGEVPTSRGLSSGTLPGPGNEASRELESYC
Experiment: cell-based or functional assay
Starred links: 1 amine or outer side, 2 acyl side, 3 side chain; linkers in the order of their positions; H or OH if unused. Non-standard residues stand in square brackets, D forms with d. Groups on a side chain read outwards from the residue. No end group written: not given here. *: point of attachment. C20 diacid = O=C(O)CCCCCCCCCCCCCCCCCCC(=O)*; C18 diacid = O=C(O)CCCCCCCCCCCCCCCCC(=O)*; γGlu = O=C(O)[C@H](CCC(=O)[*:2])N[*:1]; εLys = N[C@@H](CCCCN[*:1])C(=O)[*:2]; AEEA = NCCOCCOCC(=O)O; Aib = CC(C)(N)C(=O)O
Lab note: class by EC50 CreLuc hGIPR 0.5% hP, see low band = under 0.2 nM, middle band = from 0.2 nM up to 0.3 nM, high band = 0.3 nM and over

For orientation, consider the following solved cases.
[[record]]
binder = "Y[Aib]EGTFTSDYSI[Aib]LEKQAQ[Aib]AFVQWLIK([εLys-γGlu-γGlu-γGlu-γGlu-γGlu-C18 diacid])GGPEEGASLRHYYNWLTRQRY-NH2 [Compound 143]"
label = "middle band"

[[record]]
binder = "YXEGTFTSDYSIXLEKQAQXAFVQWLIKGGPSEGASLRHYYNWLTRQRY (Aib at 2, 13, 20; NMeQ at 47; K28 side chain: C20DA-gGlu-gGlu-gGlu-gGlu-gGlu-gGlu-eLys; C-terminal NH2) [Compound 115]"
label = "high band"

[[record]]
binder = "YXEGTFTSDYSIXLEKQAQXAFVQWLIKGGPEEGASLRHYYNWLTRQRY (Aib at 2, 13, 20; K28 side chain: C20DA-gGlu-gGlu-gGlu-gGlu-gGlu-gGlu-eLys; C-terminal NH2) [Compound 89]"
label = "high band"

[[record]]
binder = "YXEGTFTSDYSIXLEKQAQXAFVEWLIKGGPSSPASLRHYYNWLTRQRY (Aib at 2, 13, 20; K28 side chain: C20DA-gGlu-gGlu-gGlu-gGlu-gGlu-gGlu-eLys; C-terminal NH2) [Compound 95]"
label = "low band"

[[record]]
binder = "Y[Aib]EGTFTSDYSI[Aib]LEKQAE[Aib]AFVEWLIK([AEEA-AEEA-γGlu-γGlu-γGlu-γGlu-C18 diacid])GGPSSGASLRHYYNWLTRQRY-NH2 [Compound 150]"
label = "middle band"

[[record]]
binder = "YXEGTFTSDYSIXLEKQAQXAFVQWLIKGGPSEPASLRHYYNWLTRQRY (Aib at 2, 13, 20; K28 side chain: C18DA-gGlu-gGlu-gGlu-gGlu-gGlu-OEG-OEG; C-terminal NH2) [Compound 142]"
label = "middle band"

[[record]]
binder = "Y[Aib]EGTFTSDYSI[Aib]LEKQAQ[Aib]AFVEWLIK([εLys-γGlu-γGlu-γGlu-γGlu-γGlu-C18 diacid])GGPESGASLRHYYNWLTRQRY-NH2 [Compound 152]"
label = "high band"

[[record]]
binder = "Y[Aib]EGTFTSDYSI[Aib]LEKQAQ[Aib]EFVEWLIK([εLys-γGlu-γGlu-γGlu-γGlu-γGlu-γGlu-γGlu-C20 diacid])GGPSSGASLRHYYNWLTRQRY-NH2 [Compound 88]"
label = "high band"


For Y[Aib]EGTFTSDYSI[Aib]LEKQAQ[Aib]EFVEWLIK([εLys-γGlu-γGlu-γGlu-γGlu-γGlu-C18 diacid])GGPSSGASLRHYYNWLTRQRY-NH2 [Compound 159] , which EC50 CreLuc hGIPR 0.5% hP bin applies?
high band

Quick check: band for Y[Aib]EGTFTSDYSI[Aib]LEKQAQ[Aib]EFVEWLIK([AEEA-AEEA-γGlu-γGlu-γGlu-γGlu-C18 diacid])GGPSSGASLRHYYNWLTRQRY-NH2 [Compound 145]
middle band

Tag the class for YXEGTFTSDYSIXLEKQAQXAFVEWLIKGGPSSGLSLRHYYNWLTRQRY (Aib at 2, 13, 20; K28 side chain: C20DA-gGlu-gGlu-gGlu-gGlu-gGlu-gGlu-eLys; C-terminal NH2) [Compound 107]
middle band

Please indicate the class for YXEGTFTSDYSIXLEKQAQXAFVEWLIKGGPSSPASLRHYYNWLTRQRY (Aib at 2, 13, 20; K28 side chain: C20DA-gGlu-gGlu-gGlu-gGlu-gGlu-OEG-OEG; C-terminal NH2) [Compound 120] based on its EC50 CreLuc hGIPR 0.5% hP.
high band

Kindly identify the class of YXEGTFTSDYSIXLEKQAQXAFIEWLIKGGPSSGASLRHYYNWLTRQRY (Aib at 2, 13, 20; K28 side chain: C20DA-gGlu-gGlu-gGlu-Glu-gGlu-gGlu-eLys; C-terminal NH2) [Compound 130] .
low band

State the band of Y[Aib]EGTFTSDYSI[Aib]LEEQAQ[Aib]AFVEWLIK([εLys-AEEA-γGlu-γGlu-γGlu-γGlu-γGlu-C20 diacid])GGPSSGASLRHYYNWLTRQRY-NH2 [Compound 110]
low band

Categorize the following entry: Y[Aib]EGTFTSDYSI[Aib]LEEQAQ[Aib]AFVEWLIKGGPSSGASLRHYYNWLTRQRY-NH2 (not fully specified (residue 28)) [Compound 100]
low band

Into which category would you place YXEGTFTSDYSIXLEKQAQXAFVQWLIKGGPSSGASLRHYYNWLTRQRY (Aib at 2, 13, 20; K28 side chain: C20DA-gGlu-gGlu-gGlu-gGlu-gGlu-OEG-OEG; C-terminal NH2) [Compound 112] ?
low band

Classify this binder: YXEGTFTSDYSIXLEKQAQXAFVEYLIKGGPSSGASLRHYYNWLTRQRY (Aib at 2, 13, 20; K28 side chain: C20DA-gGlu-gGlu-gGlu-gGlu-gGlu-gGlu-eLys; C-terminal NH2) [Compound 135]
low band

Kindly identify the class of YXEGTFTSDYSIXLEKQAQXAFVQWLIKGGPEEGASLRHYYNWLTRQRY (Aib at 2, 13, 20; K28 side chain: C18DA-gGlu-gGlu-gGlu-gGlu-gGlu-gGlu-eLys; C-terminal NH2) [Compound 149] .
high band

Just checking, what class would you give YXEGTFTSDYSIXLEAQAQXAFVEWLIKGGPSSGASLRHYYNWLTRQRY (Aib at 2, 13, 20; K28 side chain: C20DA-gGlu-gGlu-gGlu-gGlu-gGlu-gGlu-eLys; C-terminal NH2) [Compound 102] here?
high band

Data provenance is patent US20240247080A1.
